Tested on: Puccinia triticina
MEASUREMENT DESCRIPTION: Wheat brown rust (PUCCRT) fungicidal activity on wheat seedlings
Assay type: in vivo
TEST PARAMETERS: 72 h, 3 Day Curative, read-out: Disease Control PUCCRT 3 DC
REPORTED METRIC: pest or weed control at 100 ppm

{"QUERY SMILES": "CCCO[C@@H]1[C@@H](Cc2ccccc2)COC[C@H](NC(=O)c2nccc(OC)c2O)C(=O)O[C@H]1C", "pest or weed control at 100 ppm": "80 to 100%"}

Inquiry: Check the records and state pest or weed control at 100 ppm for `COc1ccnc(C(=O)N[C@H]2COC[C@H](Cc3ccccc3)[C@@H](OC3CCCC3)[C@H](C)OC2=O)c1OC(C)=O`
Reply text: 80 to 100%

Inquiry: Check the records and state pest or weed control at 100 ppm for `COc1ccnc(C(=O)N[C@H]2COC[C@H](Cc3ccccc3)[C@@H](OCC(C)C)[C@H](C)OC2=O)c1OC(=O)OC(C)C`
Reply text: 80 to 100%
